Data origin: PubChem BioAssay (EPA / NIEHS)

# run description: ATG_M_32_TRANS: Attagene TRANS-FACTORIAL HepG2 Assay for M32 Transcription Factor (Internal Marker) (AID 2282984);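 further: transcript level of a background control reporter unit measured by RT-PCR and capillary electrophoresis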
# test settings: HepG2 Attagene TRANS M32 internal marker reporter
Inconclusive results are not listed. Active and inactive are the calls of the source. How the source made its calls: active means hit-call score of the fitted dose curve at least 0.9, where 1 is the maximum; inconclusive means response in the unintended direction; inactive means score below 0.9.

structure as smiles	outcome
O=C(c1ccccc1)c1ccc(Cl)cc1	inactive
O=C(O)C(F)(F)C(F)(F)C(F)(F)C(F)(F)C(F)(F)C(F)(F)C(F)F	inactive
CC(C)(C)c1cc(Cc2cc(C(C)(C)C)c(O)c(C(C)(C)C)c2)cc(C(C)(C)C)c1O	inactive

----------
# run description: CCTE_Deisenroth_AIME_384WELL_CTox_Inactive: Cytotoxicity Assessment (CTOX) in CCTE's 384-well Estrogen Receptor Transactivation Assay without AIME metabolic competence (metabolism negative), Deisenroth Lab (AID 2284039);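 further: cell viability via live-cell protease substrate cleaved to fluorescent probe; cells exposed 24 h to medium preincubated 2 h with alginate-water beads without S9; loss of fluorescence signal means loss of viability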
Records with an inconclusive call do not appear. Calls of active or inactive are those of the source. How the source made its calls: active means hit-call score of the fitted dose curve at least 0.9, where 1 is the maximum; inconclusive means response in the unintended direction; inactive means score below 0.9.
measured quantity: AC50

compound	reported measurement
CCN=C1C=CC(=C(c2ccc(N(CC)CC)cc2)c2ccc(N(CC)CC)cc2)c2ccccc21	57.3 µM (active)
CC(=O)CCC(C)C	inactive
CCCCCCCC/C=C\CCCCCCCC(=O)OCC(O)CO (centres undefined)	inactive
O=C1C=CC(=O)N1c1ccccc1	inactive
